These measurements were taken from ChEMBL document CHEMBL1123836.

Exercise: for every item that follows, state its recorded pIC50.
- Tested on: Vero
- test-details: Compound was tested for antiviral activity against Herpes Simplex virus Type-2(MS) in vero cells
- Format: functional, cell-based
- conditions-used: Chlorocebus sabaeus
Would you please state pIC50, meaning minus log10 of the concentration in mol/L, as a bare number?

Exam item: What measured pIC50 is associated with COc1nc(N)nc2c1ncn2CCC(CO)CO on Vero?
Marked response: 3.63

Exam item: What measured pIC50 is associated with CCCCCOC(=O)CC(CCn1cnc2c(O)nc(N)nc21)CC(=O)OCCCCC on Vero?
Marked response: 5.44

Exam item: What measured pIC50 is associated with Nc1nc(O)c2ncn(CCC(CC(=O)O)CC(=O)O)c2n1 on Vero?
Marked response: 5.00

Exam item: What measured pIC50 is associated with Nc1nc(O)c2ncn(CCC(CO)CO)c2n1 on Vero?
Marked response: 5.19

Exam item: What measured pIC50 is associated with COC(=O)CC(CO)CCn1cnc2c(O)nc(N)nc21 (stereo not drawn) on Vero?
Marked response: 4.51

Exam item: What measured pIC50 is associated with CCCCCCCCCCCCCCCOC(=O)CC(CO)CCn1cnc2c(O)nc(N)nc21 (stereo not drawn) on Vero?
Marked response: 3.89

Exam item: What measured pIC50 is associated with CCCCCOC(=O)CC(CO)CCn1cnc2c(O)nc(N)nc21 (stereo not drawn) on Vero?
Marked response: 4.82

Exam item: What measured pIC50 is associated with Nc1nc2c(ncn2COCCO)c(=O)[nH]1 on Vero?
Marked response: 5.60
